assayExplanation: Metal oxide dispersibility test (titanium oxide)
Type: physicochemical
setupConditions: 0.25 g compound, 0.50 g water, 0.10 g titanium oxide (IV); visual
quantityName: Titanium oxide dispersibility

Worked examples follow.
compound	Titanium oxide dispersibility
NC(CO)CO	○
NC(CO)(CO)CO [Working example 28]	○ ○ ○ ○
NC(CO)(CO)CO [Working example 36]	○ ○ ○ ○
NC(CO)(CO)CO [Working example 109]	○ ○ ○ ○
NC(CO)(CO)CO [Working example 48]	○ ○ ○ ○

# input for lookup
Data request: Using known records, supply Titanium oxide dispersibility for CCC(N)(CO)CO
Data returned: ○ ○

###

systemName: cytochrome C (Equus caballus, UniProt P00004)
Construct: a reagent produced by NACALAI TESQUE, INC; (Horse Heart, molecular weight 12384) was used; purchased NACALAI TESQUE, INC; host or cells: horse heart (tissue origin)
Sequence (P00004 whole entry): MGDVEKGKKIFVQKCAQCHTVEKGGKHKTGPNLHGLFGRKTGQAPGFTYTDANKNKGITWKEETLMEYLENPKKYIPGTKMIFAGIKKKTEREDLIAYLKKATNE
assayExplanation: Protein long-term stability (IR and UV spectrum), solid sample
Design: species or system Horse
quantityName: Protein long-term stability (after 30 days) Stabilizer: Protein = 0.1:1

compound	systemName	readoutValue
Br.NC(CO)(CO)CO	cytochrome C (Equus caballus, UniProt P00004)	◯
CC(O)C(=O)O.CCCCN(CCCC)CCCC [Comparative example 1, Tributyl Ammonium Lactate, reference compound]	cytochrome C (Equus caballus, UniProt P00004)	×
CC(=O)[O-].C[N+](C)(C)CCO [Comparative example 2, Choline Acetate, reference compound]	cytochrome C (Equus caballus, UniProt P00004)	×
NC(CO)(CO)CO.O=C(O)c1ccccc1	cytochrome C (Equus caballus, UniProt P00004)	◯
